assay: Pharmacokinetics of CB1a in rat blood by competitive ELISA; assay type: in vivo; settings: male, rat, iv; Sprague-Dawley rats, 50 mg/kg i.v.; tail vein blood 5-240 minutes; competitive ELISA with 5C5H5 antibody; n = 6
QUANTITY MEASURED: half-life (min)

INSERT INTO measurements (substance, reported_result) VALUES
  ('H-KWKVFKKIEKKWKVFKKIEKAGPKWKVFKKIEK-OH [CB1a]', 16.4);
